Each entry below carries its recorded logP.
measurement-kind: logP

• FC1C(Cl)C(Cl)C(Cl)C(Cl)C1Br (centres undefined) = 3.28
• FC(F)(F)COC1C(Cl)C(Cl)C(Cl)C(Cl)C1Cl (centres undefined) = 4.06
• COC1C(Cl)C(Cl)C(Cl)C(OC)C1OC (centres undefined) = 1.87
• OCC1C(Cl)C(Cl)C(Cl)C(Cl)C1Cl (centres undefined) = 2.94
• ClC1C(Cl)C(Cl)C(Br)C(Br)C1Cl (centres undefined) = 3.88
• ClC1C(Cl)C(Cl)C(I)C(Cl)C1Cl (centres undefined) = 3.96
• FC1C(Cl)C(Cl)C(Cl)C(Cl)C1Cl (centres undefined) = 3.19
• CCOC1C(Cl)C(Cl)C(Cl)C(Cl)C1Cl (centres undefined) = 3.69
• COC1C(Cl)C(Cl)C(Cl)C(Cl)C1Cl (centres undefined) = 3.14
• COC1C(Cl)C(Cl)C(OC)C(Cl)C1Cl (centres undefined) = 3.15
• COC1C(Cl)C(Cl)C(Cl)C(Cl)C1OC (centres undefined) = 2.55
• OC1C(Cl)C(Cl)C(Cl)C(Cl)C1Cl (centres undefined) = 2.54
• CC1C(Cl)C(Cl)C(C)C(Cl)C1Cl (centres undefined) = 4.4
• ClC1CC(Cl)C(Cl)CC1Cl (centres undefined) = 2.82

* * *

Experiment: method code SF-GLC, from DOI: 10.1016/0048-3575(78)90090-1
Each entry below carries its recorded logP.
measurement-kind: logP

* ClC1C(Cl)C(Br)C(Cl)C(Cl)C1Br (stereo unspecified) | 3.98
* ClC1C(Cl)C(Cl)C(Br)C(Cl)C1Cl (stereo unspecified) | 3.74
* CC1C(Cl)C(Cl)C(Cl)C(Cl)C1Cl (stereo unspecified) | 4.04
* CC(=O)Oc1c(Cl)c(Cl)c(Cl)c(Cl)c1Cl | 3.4
* ClC1CC(Cl)C(Cl)C(Cl)C1Cl (stereo unspecified) | 3.53
* COC1CC(Cl)C(Cl)C(Cl)C1Cl (stereo unspecified) | 2.99
